# PROTOCOL DESCRIPTION: Cmax in dog at 2.5 mg/kg, po by LC-MS method
# Format: ADME, organism-based, Canis lupus familiaris
# Parameters: dose 2.5 mg/kg, route oral
# STUDY CONDITIONS: in vivo
MEASURED QUANTITY: Cmax (nM)
API: value field is a number in nM; no unit string.

Indicate its recorded Cmax; the compound in question is COC(=O)N[C@H](C(=O)N1CCC[C@H]1c1nc2cc([C@H]3CC[C@H](c4cc5nc([C@@H]6CCCN6C(=O)[C@@H](NC(=O)OC)[C@@H](C)OC)[nH]c5cc4F)N3c3cc(F)c(N4CCC(c5ccc(F)cc5)CC4)c(F)c3)c(F)cc2[nH]1)[C@@H](C)OC
562

* * *

# PROTOCOL DESCRIPTION: Permeability of the compound by PAMPA
# Type: ADME
# STUDY CONDITIONS: read-out: permeability
Each entry below carries its reported Papp.
API: value field is a number in ×10⁻⁶ cm/s; no unit string.

Use these answered entries as a reference point.
[
  {
    "SUBSTANCE SMILES": "COC(=O)N[C@H](C(=O)N1CCC[C@H]1c1nc2ccc([C@H]3CC[C@H](c4ccc5nc([C@@H]6CCCN6C(=O)[C@@H](NC(=O)OC)C(C)C)[nH]c5c4)N3c3ccc(N4CCOCC4)cc3)cc2[nH]1)C(C)C",
    "MEASURED QUANTITY": "Papp",
    "UNIT": "×10⁻⁶ cm/s",
    "DATA VALUE": 0.73
  },
  {
    "SUBSTANCE SMILES": "COC(=O)N[C@H](C(=O)N1CCC[C@H]1c1nc2ccc([C@H]3CC[C@H](c4ccc5nc([C@@H]6CCCN6C(=O)[C@@H](NC(=O)OC)C(C)C)[nH]c5c4)N3c3ccc(C(C)(C)C)cc3)cc2[nH]1)C(C)C",
    "MEASURED QUANTITY": "Papp",
    "UNIT": "×10⁻⁶ cm/s",
    "DATA VALUE": 0.14
  }
]

Indicate its recorded Papp; the compound in question is COC(=O)N[C@H](C(=O)N1CCC[C@H]1c1nc2ccc([C@H]3CC[C@H](c4ccc5nc([C@@H]6CCCN6C(=O)[C@@H](NC(=O)OC)C(C)C)[nH]c5c4)N3c3cc(Cl)c(N4CCCCC4)c(Cl)c3)cc2[nH]1)C(C)C
0.03

Indicate its recorded Papp; the compound in question is COC(=O)N[C@H](C(=O)N1CCC[C@H]1c1nc2ccc([C@H]3CC[C@H](c4ccc5nc([C@@H]6CCCN6C(=O)[C@@H](NC(=O)OC)C(C)C)[nH]c5c4)N3c3ccc(N4CCCCC4)c(F)c3)cc2[nH]1)C(C)C
0.01

* * *

# PROTOCOL DESCRIPTION: Half life in rat at 3 mg/kg, iv by LC-MS method
# Format: ADME, organism-based
# STUDY CONDITIONS: in vivo
MEASURED QUANTITY: half-life (h)
API: value field is a number in h; no unit string.

Indicate its recorded half-life; the molecule in question is COC(=O)N[C@H](C(=O)N1CCC[C@H]1c1nc2cc([C@H]3CC[C@H](c4cc5nc([C@@H]6CCCN6C(=O)[C@@H](NC(=O)OC)[C@@H](C)OC)[nH]c5cc4F)N3c3cc(F)c(N4CCC(c5ccc(F)cc5)CC4)c(F)c3)c(F)cc2[nH]1)[C@@H](C)OC
6.2

* * *

# TESTED SYSTEM: Nonstructural protein 5A (Hepatitis C virus) (UniProt Q5L478)
# Sequence (Q5L478 as listed by the source): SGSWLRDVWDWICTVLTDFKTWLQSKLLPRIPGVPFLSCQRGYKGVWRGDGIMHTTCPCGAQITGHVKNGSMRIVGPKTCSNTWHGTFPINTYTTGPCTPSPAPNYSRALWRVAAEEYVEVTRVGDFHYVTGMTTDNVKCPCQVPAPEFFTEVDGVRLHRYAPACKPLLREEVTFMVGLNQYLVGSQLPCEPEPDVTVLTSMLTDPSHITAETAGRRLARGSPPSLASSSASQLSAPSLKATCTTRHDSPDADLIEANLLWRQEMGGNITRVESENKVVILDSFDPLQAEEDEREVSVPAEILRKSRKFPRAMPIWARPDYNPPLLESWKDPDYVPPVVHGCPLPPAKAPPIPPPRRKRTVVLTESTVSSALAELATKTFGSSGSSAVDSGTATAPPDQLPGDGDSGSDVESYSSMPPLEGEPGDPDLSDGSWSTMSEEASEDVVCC
# PROTOCOL DESCRIPTION: Inhibition of NS5A Q30E mutant in HuH7 cell infected HCV genotype 1a H77 assessed as decrease in viral replication after 4 days by luciferase reporter gene assay relative to wild type protein
# STUDY CONDITIONS: Hepatitis C virus (isolate H77)
Please use Y for fold change (FC) under 20 and N for everything else, ties included.

// known answers, use as guide
[
  {
    "SUBSTANCE SMILES": "COC(=O)N[C@H](C(=O)N1CCC[C@H]1c1nc2ccc([C@H]3CC[C@H](c4ccc5nc([C@@H]6CCCN6C(=O)[C@@H](NC(=O)OC)C(C)C)[nH]c5c4)N3c3ccc(C4CCCCC4)cc3)cc2[nH]1)C(C)C",
    "TESTED SYSTEM": "Nonstructural protein 5A (Hepatitis C virus) (UniProt Q5L478)",
    "LABEL": "N"
  },
  {
    "SUBSTANCE SMILES": "COC(=O)N[C@H](C(=O)N1CCC[C@H]1c1nc2cc(F)c([C@H]3CC[C@H](c4cc5[nH]c([C@@H]6CCCN6C(=O)[C@@H](NC(=O)OC)C(C)C)nc5cc4F)N3c3cc(F)c(N4CCC(c5ccccc5)CC4)c(F)c3)cc2[nH]1)C(C)C",
    "TESTED SYSTEM": "Nonstructural protein 5A (Hepatitis C virus) (UniProt Q5L478)",
    "LABEL": "Y"
  }
]

Item COC(=O)N[C@H](C(=O)N1CCC[C@H]1c1nc2cc(F)c([C@H]3CC[C@H](c4cc5[nH]c([C@@H]6CCCN6C(=O)[C@@H](NC(=O)OC)C6CCOCC6)nc5cc4F)N3c3cc(F)c(N4CCC(c5ccc(F)cc5)CC4)c(F)c3)cc2[nH]1)C1CCOCC1 : fold change (FC) beneath 20, strictly?
Y

Item COC(=O)N[C@H](C(=O)N1CCC[C@H]1c1nc2cc(F)c([C@H]3CC[C@H](c4cc5[nH]c([C@@H]6CCCN6C(=O)[C@@H](NC(=O)OC)[C@@H](C)OC)nc5cc4F)N3c3cc(F)c(N4CCC(c5ccccc5)CC4)c(F)c3)cc2[nH]1)[C@@H](C)OC : fold change (FC) beneath 20, strictly?
Y

Item COC(=O)N[C@H](C(=O)N1CCC[C@H]1c1nc2ccc([C@H]3CC[C@H](c4ccc5nc([C@@H]6CCCN6C(=O)[C@@H](NC(=O)OC)C(C)C)[nH]c5c4)N3c3cc(F)c(N4CCC(c5ccccc5)CC4)c(F)c3)cc2[nH]1)C(C)C : fold change (FC) beneath 20, strictly?
N

Item COC(=O)N[C@H](C(=O)N1CCC[C@H]1c1nc2cc([C@H]3CC[C@H](c4cc5nc([C@@H]6CCCN6C(=O)[C@@H](NC(=O)OC)[C@@H](C)OC)[nH]c5cc4F)N3c3cc(F)c(N4CCC(c5ccc(F)cc5)CC4)c(F)c3)c(F)cc2[nH]1)[C@@H](C)OC : fold change (FC) beneath 20, strictly?
Y

Item COC(=O)N[C@H](C(=O)N1CCC[C@H]1c1nc2ccc([C@H]3CC[C@H](c4ccc5nc([C@@H]6CCCN6C(=O)[C@@H](NC(=O)OC)C(C)C)[nH]c5c4)N3c3ccc(C(C)(C)C)cc3)cc2[nH]1)C(C)C : fold change (FC) beneath 20, strictly?
N

Item COC(=O)N[C@H](C(=O)N1CCC[C@H]1c1nc2ccc([C@H]3CC[C@H](c4ccc5nc([C@@H]6CCCN6C(=O)[C@@H](NC(=O)OC)C(C)C)[nH]c5c4)N3c3ccc(Cl)cc3)cc2[nH]1)C(C)C : fold change (FC) beneath 20, strictly?
N

* * *

# PROTOCOL DESCRIPTION: Half life in dog at 1 mg/kg, iv by LC-MS method
# Type: ADME, organism-based, Canis lupus familiaris
# STUDY CONDITIONS: in vivo
MEASURED QUANTITY: half-life (h)
API: value field is a number in h; no unit string.

Indicate its recorded half-life; the compound in question is COC(=O)N[C@H](C(=O)N1CCC[C@H]1c1nc2cc([C@H]3CC[C@H](c4cc5nc([C@@H]6CCCN6C(=O)[C@@H](NC(=O)OC)[C@@H](C)OC)[nH]c5cc4F)N3c3cc(F)c(N4CCC(c5ccc(F)cc5)CC4)c(F)c3)c(F)cc2[nH]1)[C@@H](C)OC
7.1

* * *

# PROTOCOL DESCRIPTION: AUC (0 to infinity) in mouse at 3 mg/kg, po by LC-MS method
# Assay type: ADME, organism-based
# Set-up: dose 3 mg/kg, route oral, time infinity
# STUDY CONDITIONS: in vivo
MEASURED QUANTITY: AUC(0-inf) (ng·h/mL)
API: value field is a number in ng·h/mL; no unit string.

Use these answered entries as a reference point.
[
  {
    "SUBSTANCE SMILES": "COC(=O)N[C@H](C(=O)N1CCC[C@H]1c1nc2cc([C@H]3CC[C@H](c4ccc5[nH]c([C@@H]6CCCN6C(=O)[C@@H](NC(=O)OC)C(C)C)nc5c4)N3c3cc(F)c(N4CCC(c5ccccc5)CC4)c(F)c3)ccc2[nH]1)C(C)C",
    "AUC(0-inf) (ng·h/mL)": 6830
  },
  {
    "SUBSTANCE SMILES": "COC(=O)N[C@H](C(=O)N1CCC[C@H]1c1nc2ccc([C@H]3CC[C@H](c4ccc5nc([C@@H]6CCCN6C(=O)[C@@H](NC(=O)OC)C(C)C)[nH]c5c4)N3c3ccc(N4CCOCC4)cc3)cc2[nH]1)C(C)C",
    "AUC(0-inf) (ng·h/mL)": 2
  }
]

Let's switch to this molecule now.
Indicate its recorded AUC(0-inf); the molecule in question is COC(=O)N[C@H](C(=O)N1CCC[C@H]1c1nc2ccc([C@H]3CC[C@H](c4ccc5nc([C@@H]6CCCN6C(=O)[C@@H](NC(=O)OC)C(C)C)[nH]c5c4)N3c3cc(Cl)c(N4CCCCC4)c(Cl)c3)cc2[nH]1)C(C)C
960
